From: the supplement of paper PMC11865577

# Test system: TO-N3-2 (biotin conjugate)
# protocol_summary: pull-down binding Z-score (relative to library population); higher = stronger binding
# condition_set: RNA library: Library-2
Kindly state pull-down binding Z-score for each of the entries shown.
The reply should be a number, written without any unit.

Note down pull-down binding Z-score recorded for AGGUUUAUGACUGGGCAUUUCUCACCCAAUGCCCAAUAUUGAACUU [hsa-mir-4431]
-0.666

Note down pull-down binding Z-score recorded for CUCAGCAUGUUGAGCCCUGUCUCUGGGGAGCUGAC [hsa-mir-6505]
0.878

Note down pull-down binding Z-score recorded for CACUAAUGUGAUUAAUGUUGUUGUG [hsa-mir-3657]
-0.402

Note down pull-down binding Z-score recorded for GAGUGUAAUUACGUACAUGCAGUAGCUC [hsa-mir-618]
0.152

Note down pull-down binding Z-score recorded for GACUUUUCUAUUUUCCAAAAGC [hsa-mir-423]
-0.573

---

# System: TO-N3-2 (biotin conjugate)
# protocol_summary: pull-down binding Z-score (relative to library population); higher = stronger binding
# condition_set: RNA library: Library-2
property_measured: pull-down binding Z-score
The reply should be a number, written without any unit.

Note down pull-down binding Z-score recorded for CAUGCGCUAUCUCUGUGUCGUAUG [hsa-mir-380]
-0.0393

Note down pull-down binding Z-score recorded for UAUAUACUGAUGUAAUUUUCCUUGGAUUUAUAUGCAGUACUGAG [hsa-mir-6130]
-0.225

Note down pull-down binding Z-score recorded for CCCACCUCCAGCAUUGGG [hsa-mir-1267]
-0.466

Note down pull-down binding Z-score recorded for UGGCGACACUCGCGCCAGCUCCCGGGACGGCUGGGCUCGGGCUGGUCGCCGA [hsa-mir-7845]
1.38

Note down pull-down binding Z-score recorded for "GCUAAAUUGUUACAUAAACCUAUUGUUUGGCAUGUUAACAAUGCAACUAAUAAAGCCACGUAUAAACCAAAUACCUGGUGUAUACGUUGUCUUUGGAGC"
-1.05

Note down pull-down binding Z-score recorded for UUGACCAAUCAUCUUAUUGACUAGA [hsa-mir-6502]
-0.496

Note down pull-down binding Z-score recorded for AGACCUUCCUUCCUUGUCU [hsa-mir-3163]
-0.35

Note down pull-down binding Z-score recorded for GCCAGUUGGAGGC [IAV_invivo_PB1_2_Motif_15+IAV_invivo_PB1_2_Motif_15]
0.153

Note down pull-down binding Z-score recorded for UAGAUACUCAGGAGGGUGAGUAUCUA [hsa-mir-5689]
-0.726

Note down pull-down binding Z-score recorded for "AAAGUGCAGUGAAAAGAACAAUCAAGGGUACACACCACUGGUUGUUACUCACAAUUUUGACUUCACUUU"
0.0106

Note down pull-down binding Z-score recorded for "GCAGUGGCUAACUAACAUCUUUGGCACUGU"
-0.175

Note down pull-down binding Z-score recorded for CCCAAUCGUGGCGUGUCGGCCUGCUUCGGCAGGCACUGGCGCCG [Pepper530]
1.13

Note down pull-down binding Z-score recorded for GUGUCCUUUCUUCUGAGAGCUGGACAC [hsa-mir-6500]
-0.336

Note down pull-down binding Z-score recorded for "AUUGUUACAUAAACCUAUUGUUUGGCAUGUUAACAAU"
-0.663

Note down pull-down binding Z-score recorded for "ACAGUAUGUCUUUUGUACUGU"
-1.28

---

# Tested on: TO-N3-2 (biotin conjugate)
# protocol_summary: pull-down binding Z-score (relative to library population); higher = stronger binding
# condition_set: RNA library: Library-2
Grouping by measured pull-down binding Z-score is done with the following cut points: lower segment (below -0.9), middle segment (-0.9 to below 0.5), upper segment (0.5 or more)

Assign a category based on measured pull-down binding Z-score for UGGUACUGAAGAUGAUUACCA [SHAPE_invitro_SARS-CoV-2_Motif_57] and give only the class name.
middle segment

Assign a category based on measured pull-down binding Z-score for CCUUCCAAUACCUGUAAGCAGAAGG [hsa-mir-3158-2] and give only the class name.
middle segment

Assign a category based on measured pull-down binding Z-score for GAGUCCUCAUCGGAGGACUU [IAV_invivo_NS1_NEP_8_Motif_11+IAV_invivo_NS1_NEP_8_Motif_11] and give only the class name.
lower segment

Assign a category based on measured pull-down binding Z-score for CCGUUUAAAAAGGCAUCUCCAAG [hsa-mir-608] and give only the class name.
middle segment

Assign a category based on measured pull-down binding Z-score for CCCAAGCAGGCUUUGUGUGAGCAGUGAGGCUAUUUAUUCACUUGGGUGCGAGCUCACACGAAGCCUGCUUGGG [hsa-mir-6839] and give only the class name.
upper segment

Assign a category based on measured pull-down binding Z-score for CAUUGGUGUAAAGCUGGAGACCCACUG [hsa-mir-324] and give only the class name.
upper segment

Assign a category based on measured pull-down binding Z-score for ACCACUGUGAAGACAGUAAAAUGUACAGUGGU [hsa-mir-597] and give only the class name.
lower segment

Assign a category based on measured pull-down binding Z-score for GUCUGUCACUGGGGAAGUC [hsa-mir-4682] and give only the class name.
upper segment

Assign a category based on measured pull-down binding Z-score for GGCCGGUCAGGCA [hsa-mir-4689] and give only the class name.
upper segment

Assign a category based on measured pull-down binding Z-score for CUCUGGAACACUUUUACAAGACUUCAGAG [SHAPE_invivo_SARS-CoV-2_Motif_367] and give only the class name.
middle segment

Assign a category based on measured pull-down binding Z-score for UUCUUGUACGAGUCUGCGGCCAACCGAGAA [hsa-mir-219a-2] and give only the class name.
upper segment

Assign a category based on measured pull-down binding Z-score for ACUUAAGCACCAGGUAAAAUCUGGUGCUUAAGU [hsa-mir-4720] and give only the class name.
lower segment

Assign a category based on measured pull-down binding Z-score for UUUUCAUGACAACCCUAUAUGGGAAAAUGUUGUGAAAA [hsa-mir-3646] and give only the class name.
lower segment

Assign a category based on measured pull-down binding Z-score for UUGGCACAGGGAAGCGAGUCUGCCAA [hsa-mir-195] and give only the class name.
upper segment

Assign a category based on measured pull-down binding Z-score for "UCCACACGCAAGUUGUGGA" and give only the class name.
lower segment

Assign a category based on measured pull-down binding Z-score for UUUGUGUAAGGAAUUUUGUGGUCACAAA [hsa-mir-10a] and give only the class name.
middle segment

Assign a category based on measured pull-down binding Z-score for CAUUGUAACAUGAUAGUG [hsa-mir-4264] and give only the class name.
middle segment

Assign a category based on measured pull-down binding Z-score for UGCUUGAUCCAUAUGCAACAAGGCA [hsa-mir-103b-1] and give only the class name.
upper segment

Assign a category based on measured pull-down binding Z-score for GCGGGGAACGAGGCCGUCGGCCAUUUUGUG [hsa-mir-632] and give only the class name.
upper segment

Assign a category based on measured pull-down binding Z-score for UGAGGUUUACUAUGGAACCUCA [hsa-mir-4465] and give only the class name.
lower segment

Assign a category based on measured pull-down binding Z-score for GUCAAAGUGAC [SHAPE_invivo_SARS-CoV-2_Motif_385] and give only the class name.
middle segment

Assign a category based on measured pull-down binding Z-score for "UGUAAAUCACAUAAACCACCCAUUAGUUUUCCAUUGUGUGCUAAUGGACAAGUUUUUGGUUUAUA" and give only the class name.
lower segment

Assign a category based on measured pull-down binding Z-score for CCAGUGGUUUUCCUUGACUGUG [hsa-mir-298] and give only the class name.
middle segment

Assign a category based on measured pull-down binding Z-score for CUUUUAUGUCUAUGCUAAUGGAGGUAAAGG [SHAPE_invivo_SARS-CoV-2_Motif_154] and give only the class name.
middle segment

Assign a category based on measured pull-down binding Z-score for "AAUGUAGUAGAAUUAUACCUGCACGUGCUCGUGUAGAGUGUUUUGAUAAAUUCAAAGUGAAUUCAACAUUAGAACAGUAUGUCUUUUGUACUGUAAAUGCAUU" and give only the class name.
middle segment
